assay: AUClast in CD1 mouse at 100 mg/kg, ip measured after 15 to 4320 mins by LC-MS/MS analysis; type: ADME, organism-based; parameters: time lower 15 min, dose 100 mg/kg, time upper 4320 min, route ip; settings: in vivo
Assay readout: AUC(0-t) (µM·h)
The reply should contain only the number, in µM·h.

Given item `CCc1cc2c(cc1Cl)nc1c(=O)[nH]c(=O)nc-1n2CCOCC(C)C` , the value recorded as its AUC(0-t) is 641

###

biological target: HAT1/Rbap46 (Homo sapiens) (UniProt Q16576+O14929); test: Inhibition of C-terminal FLAG tagged full length human HAT1/Rbap46 transfected in HEK293F cells using histone H4 peptide as substrate and 4-pentynoyl-CoA as cofactor at 100 uM preincubated for 10 mins followed by 4-pentynoyl-CoA addition and measured after 1 hr by amplex red dye based fluorescence analysis relative to control; format: cell-based; conditions: time 70.0 min
Sequence (O14929 2-419 partner limits assumed): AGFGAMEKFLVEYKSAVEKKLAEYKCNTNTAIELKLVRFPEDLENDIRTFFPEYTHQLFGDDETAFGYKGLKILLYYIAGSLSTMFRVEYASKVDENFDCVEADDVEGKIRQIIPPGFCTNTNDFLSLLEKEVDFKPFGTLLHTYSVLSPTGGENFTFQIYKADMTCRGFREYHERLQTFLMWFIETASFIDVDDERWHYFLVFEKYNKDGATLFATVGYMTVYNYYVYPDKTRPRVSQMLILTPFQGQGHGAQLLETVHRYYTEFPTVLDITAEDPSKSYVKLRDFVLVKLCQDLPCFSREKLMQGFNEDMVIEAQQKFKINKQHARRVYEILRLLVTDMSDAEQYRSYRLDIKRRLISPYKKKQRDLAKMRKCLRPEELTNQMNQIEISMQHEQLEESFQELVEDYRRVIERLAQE
Sequence (Q16576 2-425 limits assumed): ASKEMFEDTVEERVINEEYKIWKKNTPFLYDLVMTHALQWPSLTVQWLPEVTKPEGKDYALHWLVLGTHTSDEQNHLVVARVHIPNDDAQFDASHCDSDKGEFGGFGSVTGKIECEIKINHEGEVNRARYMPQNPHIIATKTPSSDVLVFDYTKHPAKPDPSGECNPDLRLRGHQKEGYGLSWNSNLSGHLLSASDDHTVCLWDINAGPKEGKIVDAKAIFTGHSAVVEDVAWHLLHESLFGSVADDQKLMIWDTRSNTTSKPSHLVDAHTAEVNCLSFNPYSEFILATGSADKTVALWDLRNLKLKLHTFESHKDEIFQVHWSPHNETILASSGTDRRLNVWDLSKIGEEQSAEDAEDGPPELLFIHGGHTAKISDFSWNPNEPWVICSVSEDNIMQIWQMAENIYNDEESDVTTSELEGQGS
Assay readout: inhibition (%)
The reply should contain only the number, in %.

These recorded examples may help you get a feel for the data.
# Structure, System name, Unit of measure, Val
measured = [
    ("CCc1cc2c(cc1Cl)nc1c(=O)[nH]c(=O)nc-1n2CCCc1cc(F)cc(F)c1", "HAT1/Rbap46 (Homo sapiens) (UniProt Q16576+O14929)", "%", 15),
    ("O=c1nc2n(CCN(CO)CO)c3cc(Cl)c(Cl)cc3nc-2c(=O)[nH]1", "HAT1/Rbap46 (Homo sapiens) (UniProt Q16576+O14929)", "%", 17),
    ("CCc1cc2c(cc1Cl)nc1c(=O)[nH]c(=O)nc-1n2CCOCC1CCNCC1", "HAT1/Rbap46 (Homo sapiens) (UniProt Q16576+O14929)", "%", 60),
    ("CCc1cc2c(cc1Cl)nc1c(=O)[nH]c(=O)nc-1n2CCOCc1ccccc1", "HAT1/Rbap46 (Homo sapiens) (UniProt Q16576+O14929)", "%", 49),
]

Lab note: next molecule to report on.
Given item `CCc1cc2c(cc1Cl)nc1c(=O)[nH]c(=O)nc-1n2CCOc1ccc(-c2ccccc2)cc1` , the value recorded as its inhibition is 13
